- study.system: Kir3.1/Kir3.4 (Homo sapiens) (UniProt P48549+P48544)
- protocol.details: Inhibition of GIRK1/4 (unknown origin) relative to SCH3320
- Type: protein-complex assay
- Set-up: concentration or dose not given beside the values
- condition.set: concentration not given here
measure.name: inhibition (%)

Example results:
structure_as_smiles=O=C(Nc1ccc(F)c(Cl)c1)Nc1cc(CC2CC2)nn1-c1ccccc1 recorded_result=70
structure_as_smiles=Cc1ccc(NC(=O)Nc2cc(C(C)C)nn2-c2ccccc2)cc1 recorded_result=62
structure_as_smiles=Cc1cccc(NC(=O)Nc2cc(CC3CC3)nn2-c2ccccc2)c1 recorded_result=47
structure_as_smiles=O=C(Nc1ccc(F)c(F)c1)Nc1cc(CC2CC2)nn1-c1ccccc1 recorded_result=67
structure_as_smiles=Cc1cccc(NC(=O)Nc2cc(C(C)C)nn2-c2ccccc2)c1 recorded_result=67
structure_as_smiles=CC(C)c1cc(NC(=O)Nc2ccc(F)c(F)c2)n(-c2ccccc2)n1 recorded_result=150
structure_as_smiles=O=C(Nc1ccc(F)c(F)c1)Nc1cc(C2CCCC2)nn1-c1ccccc1 recorded_result=88
structure_as_smiles=O=C(Nc1cccc(C(F)(F)F)c1)Nc1cc(C2CCC2)nn1-c1ccccc1 recorded_result=84

A: O=C(Nc1cccc(F)c1)Nc1cc(CC2CC2)nn1-c1ccccc1
B: O=C(Nc1cccc(C(F)(F)F)c1)Nc1cc(CC2CC2)nn1-c1ccccc1
Task item: Name the one with the greater inhibition value, either A or B as given. Write down the label attached to your selection.
Reply: A
(A: 72%, B: 45%)

* * *

- study.system: Kir3.1/Kir3.4 (Homo sapiens) (UniProt P48549+P48544)
- protocol.details: Activation of GIRK1/4 (unknown origin) relative to ML297
- Type: protein-complex assay
measure.name: Efficacy (%)

Example results:
structure_as_smiles=Cc1cc(NC(=O)Nc2ccc(F)c(F)c2)n(-c2ccc(F)cc2)n1 units_text=% recorded_result=57
structure_as_smiles=O=C(Nc1cccc(Cl)c1)Nc1cc(C2CC2)nn1-c1ccccc1 units_text=% recorded_result=39
structure_as_smiles=Cc1cc(NC(=O)Nc2ccc(F)c(F)c2)n(Cc2ccccc2)n1 units_text=% recorded_result=99
structure_as_smiles=O=C(Nc1ccc(F)c(Cl)c1)Nc1cc(C2CC2)nn1Cc1ccccc1 units_text=% recorded_result=83
structure_as_smiles=O=C(Nc1cccc(C(F)(F)F)c1)Nc1cc(C2CC2)nn1Cc1ccccc1 units_text=% recorded_result=39
structure_as_smiles=CC(C)c1cc(NC(=O)Nc2cccc(C(F)(F)F)c2)n(Cc2ccccc2)n1 units_text=% recorded_result=10
structure_as_smiles=O=C(Nc1ccc(F)cc1)Nc1cc(C2CC2)nn1Cc1ccccc1 units_text=% recorded_result=90
structure_as_smiles=CC(C)c1cc(NC(=O)Nc2cccc(Cl)c2)n(Cc2ccccc2)n1 units_text=% recorded_result=23
structure_as_smiles=Cc1cc(NC(=O)Nc2ccc(F)c(F)c2)n(CC(F)(F)F)n1 units_text=% recorded_result=103
structure_as_smiles=O=C(Nc1cccc(Br)c1)Nc1cc(C2CC2)nn1Cc1ccccc1 units_text=% recorded_result=65

I: O=C(Nc1cccc(F)c1)Nc1cc(C2CC2)nn1Cc1ccccc1
II: Cc1ccc(NC(=O)Nc2cc(C3CC3)nn2Cc2ccccc2)cc1
Task item: Name the one with the greater Efficacy value, either I or II as given. Write down the label attached to your selection.
Reply: I
